# credit: patent US20220133717A1

MEASUREMENT DESCRIPTION: Phase II clinical trial: pharmacokinetics of plasma Rabeximod (PK subgroup)
Type: in vivo, human
EXPERIMENTAL CONDITIONS: human, plasma, po, 37.5 mg, Day 1 (equivalent to AUC0-t); 37.5 mg; RA patients, oral, with methotrexate; read-out: AUC0-τ, Median
READOUT KIND: AUC (ng·h/mL)

{"STRUCTURE NOTATION": "Cc1cc2nc3c4cc(Cl)ccc4n(CC(=O)NCCN(C)C)c3nc2cc1C", "VAL": 697}

====

MEASUREMENT DESCRIPTION: Phase II clinical trial: pharmacokinetics of plasma Rabeximod (PK subgroup)
Format: in vivo, human
EXPERIMENTAL CONDITIONS: human, plasma, po, 6.25 mg, Week 12; 6.25 mg once daily; RA patients, oral, with methotrexate; read-out: T1/2 (apparent terminal half-life), Median (converted)
READOUT KIND: half-life (h)

{"COMPOUND": "Cc1cc2nc3c4cc(Cl)ccc4n(CC(=O)NCCN(C)C)c3nc2cc1C [Rabeximod]", "READING UNIT": "h", "VAL": 86.6}

====

MEASUREMENT DESCRIPTION: Phase II clinical trial: pharmacokinetics of plasma Rabeximod (PK subgroup)
Format: in vivo, human
EXPERIMENTAL CONDITIONS: human, plasma, oral, repeated administration, Week 12; read-out: Tmax (median estimates)

{"COMPOUND": "Cc1cc2nc3c4cc(Cl)ccc4n(CC(=O)NCCN(C)C)c3nc2cc1C [Rabeximod]", "Tmax": "2 to 4 h"}

====

MEASUREMENT DESCRIPTION: Phase II clinical trial: pharmacokinetics of plasma Rabeximod (PK subgroup)
Format: in vivo, human
EXPERIMENTAL CONDITIONS: human, plasma, po, 6.35 mg, Week 12; 6.35 mg once daily; RA patients, oral, with methotrexate; read-out: AUC0-t, Geometric mean
READOUT KIND: AUC(0-t)

{"STRUCTURE NOTATION": "Cc1cc2nc3c4cc(Cl)ccc4n(CC(=O)NCCN(C)C)c3nc2cc1C", "READOUT KIND": "AUC(0-t)", "VAL": "2530 ng·h/mL"}

====

MEASUREMENT DESCRIPTION: Phase II clinical trial: pharmacokinetics of plasma Rabeximod (PK subgroup)
Type: in vivo, human
EXPERIMENTAL CONDITIONS: human, plasma, po, 6.35 mg, Week 12; 6.35 mg once daily; RA patients, oral, with methotrexate; read-out: Cmax, Median

{"STRUCTURE NOTATION": "Cc1cc2nc3c4cc(Cl)ccc4n(CC(=O)NCCN(C)C)c3nc2cc1C", "Cmax / µg/mL": 0.0375}

====

MEASUREMENT DESCRIPTION: Phase II clinical trial: pharmacokinetics of plasma Rabeximod (PK subgroup)
Type: in vivo, human
EXPERIMENTAL CONDITIONS: human, plasma, po, 6.25 mg, Week 12; 6.25 mg once daily; RA patients, oral, with methotrexate; read-out: T1/2 (apparent terminal half-life), Geometric mean (converted)

{"STRUCTURE NOTATION": "Cc1cc2nc3c4cc(Cl)ccc4n(CC(=O)NCCN(C)C)c3nc2cc1C", "half-life (h)": 81.5}

====

MEASUREMENT DESCRIPTION: Phase II clinical trial: pharmacokinetics of plasma Rabeximod (PK subgroup)
Assay type: in vivo, human
EXPERIMENTAL CONDITIONS: human, plasma, po, 6.35 mg, Day 1 (equivalent to AUC0-t); 6.35 mg; RA patients, oral, with methotrexate; read-out: AUC0-τ, Geometric mean
READOUT KIND: AUC (ng·h/mL)

{"MOLECULE": "Cc1cc2nc3c4cc(Cl)ccc4n(CC(=O)NCCN(C)C)c3nc2cc1C [Rabeximod]", "READOUT KIND": "AUC", "READING UNIT": "ng·h/mL", "VAL": 112}
